System: Escherichia coli TOP10;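 also: peptides expressed intracellularly from a pBAD plasmid library in pooled LB shake-flask culture, induced with 0.3% L-arabinose, DNA abundance read by NGS, three biological replicates, DESeq2 with apeglm shrinkage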
Test: shrunken log2 fold change of peptide-encoding DNA abundance (4.5 h post-induction vs induction); higher = less antimicrobial activity (less host growth inhibition)
Settings: time post-induction: 4.5 h; library: site-saturation at positions 5, 18, 19, 20
METRIC: shrunken log2 fold change
Write no unit; give the number alone.

• RRIRHRPPRLPRPRPRPRSPPRP = 0.243
• RRIRLRPPRLPRPRPRPMLCPRP = -0.0499
• RRIRCRPPRLPRPRPRPWPYPRP = -0.115

We now examine a further sequence.
Input: Quick one: shrunken log2 fold change of RRIRYRPPRLPRPRPRPAANPRP ?
Output: -0.0861
